src = ChEMBL document CHEMBL1201862

# EC50 annotations
Molecular target: Protein RecA (Mycobacterium tuberculosis)
Test: Fluorescence Cell-Free Homogeneous Dose Retest to Identify Inhibitors of RecA-Intein Splicing Activity. [Related pubchem assays (depositor defined):AID2097, AID2223, AID489010, AID492950]
Type: functional
The source made the active and inactive calls. No stated cut-off is given here; in the data, actives have a measured EC50 and inactives only a lower limit.
value kind: EC50

CC1=NNC(=O)C1C(c1ccc(Cl)cc1)C(C#N)C#N (configuration not stated) ... 3.26 µM (active)
CCCCCCOC(=O)c1ccccc1NC(=O)/C=C/C(=O)O ... 3.41 µM (active)
Cc1ccc(Sc2c([N+](=O)[O-])ncn2C)cc1 ... 34.6 µM (active)
Cc1ccc(-n2ncc(Br)c(Br)c2=O)cc1 ... 4.75 µM (active)
O=C(CCCN1C(=O)/C(=C/c2ccccc2)SC1=S)Nc1ccc(C(=O)O)c(O)c1 ... 15.4 µM (active)
Cl.N=c1n(Cc2ccccc2)c2ccccc2n1CC(O)COc1ccc(Cl)cc1Cl (configuration not stated) ... > 380 µM (inconclusive)
CCCc1n[nH]c2c1C(c1ccccc1OC)C(C#N)=C(N)O2 (configuration not stated) ... 2.07 µM (active)
